Quick list: pEC50 per entry.
test system: GP2D (KRAS G12D) cells; test: 2D cell viability assay (CellTiter-Glo); assay type: cell-based; details: GP2d, 96 h, 4 days
pEC50 is a log-scale quantity: -log10 of the concentration expressed in molar.

>>> value_observed("C#Cc1c(F)ccc2cccc(-c3nc4c5c(nc(OC[C@@]67CCCN6[C@H](COc6cnc(C(F)(F)F)cn6)CC7)nc5c3F)N3C[C@H]5CC[C@H](N5)[C@H]3CCC4)c12 [Example 197]")
8.62

// query Query the reported pEC50 for GP2D (KRAS G12D) cells; item: C#Cc1c(F)ccc2cccc(-c3nc4c5c(nc(OC[C@@]67CCCN6C[C@H](OC(C(F)(F)F)(C(F)(F)F)C(F)(F)F)C7)nc5c3F)N3C[C@H]5CC[C@H](N5)[C@H]3CC4)c12 [Example 130]
// result 7.00

// query Query the reported pEC50 for GP2D (KRAS G12D) cells; item: C#Cc1c(F)ccc2cccc(-c3nc4c5c(nc(OC[C@@]67CCCN6C[C@H](F)C7)nc5c3F)N3C[C@H]5CC[C@H](N5)[C@@H]3[C@@H](C)[C@H]4C)c12 [Example 86]
// result 7.84

// query Query the reported pEC50 for GP2D (KRAS G12D) cells; item: C#Cc1c(F)ccc2cccc(-c3nc4c5c(nc(OC[C@@]67CCCN6[C@H](COc6cccc(S(F)(F)(F)(F)F)c6)CC7)nc5c3F)N3C[C@H]5CC[C@H](N5)[C@H]3CC4)c12 [Example 108]
// result 6.35

// query Query the reported pEC50 for GP2D (KRAS G12D) cells; item: C#Cc1c(F)ccc2cccc(-c3nc4c5c(nc(OC[C@@]67CCCN6[C@H](COc6cc(C(F)F)ncn6)CC7)nc5c3F)N3C[C@H]5CC[C@H](N5)[C@H]3CCC4)c12 [Example 205]
// result 8.66

// query Query the reported pEC50 for GP2D (KRAS G12D) cells; item: C#Cc1c(F)ccc2cc(O)cc(-c3nc4c5c(nc(OC[C@@]67CCCN6C[C@H](F)C7)nc5c3F)N3C[C@H]5CC[C@H](N5)[C@@H]3CCO4)c12 [Example 77]
// result 7.08
